- Test system: K-562 leukemia
- assayInfo: NCI tumour cell line growth inhibition, 48 h
What TGI was measured for each of the following?

Ask | Recorded TGI for CC(C)(C)OC(=O)N1CCc2c(n(C/C=C/c3ccccc3)[nH]c2=O)C1 , please?
Reply | > 100 µM

Ask | Recorded TGI for c1ccc(OCCSCCCCCCCCCCSCCOc2ccccc2)cc1 , please?
Reply | > 100 µM

Ask | Recorded TGI for O=S1(=O)OCCOS(=O)(=O)C1Cc1nc2ccccc2[nH]1 , please?
Reply | > 100 µM

Ask | Recorded TGI for CN(C)CCCC1(c2ccc(F)cc2)OCc2cc(-c3cncc4ccccc34)ccc21 (configuration not stated) , please?
Reply | 5.17 µM

Ask | Recorded TGI for O=C(/C=C/c1cn(-c2ccccc2)nc1-c1ccc([N+](=O)[O-])cc1)c1ccc(Cl)cc1 , please?
Reply | 2.73 µM

Ask | Recorded TGI for CC(=O)[CH-]C(=O)c1ccccc1.CC(=O)[CH-]C(=O)c1ccccc1.[CH2-]CCC.[CH2-]CCC.[Sn+4] , please?
Reply | 10.3 µM

Ask | Recorded TGI for COC(=O)[C@H](Cc1ccccc1)NC(=O)c1csc([C@@H](C[C@H](C(C)C)N(C)C(=O)[C@@H](NC(=O)[C@H]2CCCN2C)C2CC2)OC(C)=O)n1 , please?
Reply | > 33.3 µM

Ask | Recorded TGI for CC1(C)CC(=O)c2c(oc3cc(O)c(O)cc23)C1 , please?
Reply | > 100 µM

Ask | Recorded TGI for CC1(C)OC(COCCOCCCCCO)C(COCCOCCCCCO)O1 (configuration not stated) , please?
Reply | > 100 µM

Ask | Recorded TGI for O=[N+]([O-])C1C2C=CC(C2)[C@H]1c1ccc(Cl)cc1Cl (some centres not stated) , please?
Reply | > 100 µM

Ask | Recorded TGI for c1ccc([P+](c2ccccc2)(c2ccccc2)c2ccc([P+](c3ccccc3)(c3ccccc3)c3ccccc3)cc2)cc1 , please?
Reply | > 100 µM

Ask | Recorded TGI for COc1ccc(-c2nc3c(c(=O)n2C(C)=O)C(c2ccc(Cl)cc2)c2sc4c(Cl)cccc4c2O3)cc1 (configuration not stated) , please?
Reply | 2.7 µM

Ask | Recorded TGI for CCN(CC)CCN(C)CCc1ccc(Br)cc1 , please?
Reply | > 100 µM

Ask | Recorded TGI for NC(=O)c1c[se]c(C2OC(COP(=O)(O)CP(=O)(O)OCC3OC(n4cnc5c(N)ncnc54)C(O)C3O)C(O)C2O)n1 (configuration not stated) , please?
Reply | > 100 µM

Ask | Recorded TGI for O=C(Nc1cc(S(=O)(=O)c2ccc(Cl)cc2)ccc1Cl)c1cc(I)cc(I)c1O , please?
Reply | 40.9 µM

Ask | Recorded TGI for c1ccc(CC(NCCNC(Cc2ccccc2)c2ccccc2)c2ccccc2)cc1 (configuration not stated) , please?
Reply | 0.89 µM

Ask | Recorded TGI for CCOC(=O)C[C@@]12CCCNC1(C)CCc1ccccc12 (some centres not stated) , please?
Reply | > 100 µM

Ask | Recorded TGI for CC(=O)Oc1ccc(C2(c3ccc(OC(C)=O)cc3)C(=O)Nc3ccccc32)cc1 , please?
Reply | > 87.3 µM

Ask | Recorded TGI for Cc1cc(=O)oc2cc(OCCn3c(C)nn(-c4ccc(Cl)cc4)c3=O)ccc12 , please?
Reply | > 100 µM

Ask | Recorded TGI for O=C1CSC2(CC(/C=C/c3ccccc3Br)=NN2c2cccc(S(=O)(=O)O)c2)N1c1nc2ccccc2s1 (configuration not stated) , please?
Reply | > 100 µM

Ask | Recorded TGI for Cn1c(=O)sc2cc(C(=S)N3CCOCC3)ccc21 , please?
Reply | > 100 µM

Ask | Recorded TGI for CC(C)(CO)N=Cc1ccccc1[O-].CC(C)(CO)N=Cc1ccccc1[O-].[Co+2] , please?
Reply | > 100 µM
